// data source = PubChem BioAssay (NCI)

Test system: SR leukemia
Assay: NCI tumour cell line growth inhibition, 48 h
propertyLabel: TGI

compound=CC(=O)O[C@H]([C@H](OC(C)=O)[C@H](C)OC(C)=O)[C@@H](/C=C/[C@@H]1CC=CC(=O)O1)OC(C)=O propertylabel=TGI experimentalvalue="> 100 µM"
compound="CC(Oc1ccccc1Cl)C(=O)NN1C(=O)CC(=O)N(c2ccccc2)C1=S (centres undefined)" propertylabel=TGI experimentalvalue="> 100 µM"
compound=COC(=O)/C=C\C(C#N)(C#N)N=Cc1cccc(OC)c1 propertylabel=TGI experimentalvalue="> 24.5 µM"
compound=CSc1nc(C)cc(Nc2ccc(O)c(CN3CCOCC3)c2)n1 propertylabel=TGI experimentalvalue="> 100 µM"
compound=CC(=O)/C(=C/c1ccccc1)C(=O)CC(C)C propertylabel=TGI experimentalvalue="7.37 µM"
compound=C[C@]12CCC(=O)C(OC(=O)c3ccc([N+](=O)[O-])cc3)=C1CCC2=O propertylabel=TGI experimentalvalue="> 100 µM"
compound=Cc1ccc(C(=O)Nc2ccc(CP(=O)(O)O)cc2)cc1NC(=O)c1cccc(N)c1 propertylabel=TGI experimentalvalue="> 100 µM"
compound=CSc1c(C2=C(c3cn(C)c4ccccc34)C(=O)NC2=O)c2ccccc2n1C propertylabel=TGI experimentalvalue="1.88 µM"
compound="CC(=O)OCC1OC(n2ccc(=O)[nH]c2=O)C(OC(C)=O)C(OC(C)=O)C1OC(C)=O (centres undefined)" propertylabel=TGI experimentalvalue="> 100 µM"
